Measured melting point accompanies every entry in the list below.

[
  {
    "COMPOUND": "O=CNc1cccc2c1C(=O)c1c-2n[nH]c1-c1ccncc1",
    "melting point": "> 300 °C"
  },
  {
    "COMPOUND": "O=C1CN2CCOC2(c2ccccc2F)c2cc(Cl)ccc2N1 (stereo unspecified)",
    "melting point": "183 to 184 °C"
  },
  {
    "COMPOUND": "CSc1ccc2oc3cc(F)ccc3c(=O)c2c1",
    "melting point": "113 to 116 °C"
  },
  {
    "COMPOUND": "COc1ccc(CNc2ccccc2C(=O)Nc2cccc(C(F)(F)F)c2C)cn1",
    "melting point": "134 to 135 °C"
  },
  {
    "COMPOUND": "COc1ccc(S(=O)(=O)N(CCn2ccnc2)c2ccc(Cl)cc2Cc2c(F)cccc2F)cc1OC",
    "melting point": "160 °C"
  }
]

Proceed to the following item.
Ask | Quick one: melting point of Cc1cc2c(F)cc(F)c(-n3c(=O)cc(C(F)(F)F)n(C)c3=O)c2o1 ?
Reply | 176 to 178 °C

* * *

READOUT KIND: melting point (°C)

[
  {
    "SMILES CODE": "Cc1c(CNS(=O)(=O)c2ccc(C(F)(F)F)cc2)nn(-c2ccc(Cl)cc2Cl)c1-c1ccc(Br)cc1",
    "melting point / °C": 195
  },
  {
    "SMILES CODE": "Nc1cc(Oc2cc(Cl)cc(Cl)c2)nc(C(=O)O)c1Cl",
    "melting point / °C": 196
  }
]

* * *

READOUT KIND: melting point

Some solved cases for reference:
[
  {
    "COMPOUND": "O=C1NCN(c2ccccc2)C12CCN(CCCn1c(=O)[nH]c3cccc(Cl)c31)CC2",
    "melting point": "258 °C"
  },
  {
    "COMPOUND": "COc1ccc(Br)c(C=C(C#N)C(=O)O)c1OC",
    "melting point": "130 to 132 °C"
  },
  {
    "COMPOUND": "CN(C(=O)N(C)c1ccc(CCl)cc1)c1ccc(CCl)cc1",
    "melting point": "72 to 73 °C"
  }
]

Ask | Recorded melting point of CCc1c(N)nc(-c2ccc(Cl)c(OC)c2F)nc1C(=O)OC , please.
Reply | 144 to 146 °C

Ask | Looking for the measured melting point of O=[N+]([O-])c1cccc(F)c1CCO , can you help?
Reply | 42 to 44 °C

* * *

READOUT KIND: melting point

[
  {
    "MOLECULE": "Fc1cccc(Nc2cc(-c3ccnc(NC4CCOCC4)n3)ccn2)c1",
    "READING": "190 to 192 °C"
  },
  {
    "MOLECULE": "COc1cc(OC)c(-c2nc3cccnc3[nH]2)cc1C=CC(=O)c1ccc(C(=O)O)cc1",
    "READING": "222 to 224 °C"
  },
  {
    "MOLECULE": "CC(C)Cn1c(CN)c(-c2ccccc2)c2cc(Br)ccc2c1=O",
    "READING": "129 to 130 °C"
  },
  {
    "MOLECULE": "FC(F)(F)c1ccc(C=Cc2nc(CCl)cs2)cc1",
    "READING": "93 to 95 °C"
  }
]

Ask | Fill in the blank: the reported melting point of C(=C(\C(=C\c1ccccc1)c1ccccc1)c1ccccc1)/c1ccccc1 is ____.
Reply | 183 to 184 °C

Ask | Need melting point of COCOc1cc(OC)c(OC)cc1-c1c(C(=O)OC)nnc(C(=O)OC)c1-c1ccc(OC)c(OC)c1 , thanks.
Reply | 131 to 133 °C

Ask | For the molecule shown here, O=c1cnn(-c2cc(Cl)c(Cc3ccc(Cc4ccccc4)cc3)c(Cl)c2)c(=O)[nH]1 , give the reported melting point.
Reply | 164 to 165 °C

Ask | State the recorded melting point for this entry: CCCOc1ccc(/C=C(\C)C(=O)O)cc1
Reply | 171 °C

Ask | Suppose we examine the molecule NC(=O)c1csc(-c2cccc([N+](=O)[O-])c2)n1 ; what melting point value has been reported?
Reply | 239 to 241 °C

Ask | I'd like to know its melting point. The molecule in question is Oc1ccc(-c2nc(-c3ccc(Br)cc3)nc(-c3ccc(O)cc3O)n2)c(O)c1
Reply | 222 to 224 °C

Ask | Requested field: melting point. Item: Cc1ccn(-c2ccc(C(=O)C3c4ccccc4NC=C4N=NNN43)c(Cl)c2)n1 (stereo not given)
Reply | 110 to 114 °C

Ask | Data request, read-out melting point, for COc1cccc(NN)n1
Reply | 30 to 40 °C

Ask | Fill in: melting point of CCC1(C)CC(O)CC(C)(C)N1OC(C)c1ccccc1 (stereo not given) is ___
Reply | 58 to 69 °C

Ask | Entry Cc1ccccc1C(N)=CC#N has what melting point?
Reply | 111 to 113 °C

Ask | Using the record for CC(CC(=O)O)=NNC(=N)N , report its melting point.
Reply | 139 to 140 °C

Ask | Please report the recorded melting point for CCOC(=O)c1cnn2c(C(=O)N3CCN(C(=O)OC(C)(C)C)CC3)c(Cc3cccc(F)c3C)c(-c3ccccc3)c2c1Cl .
Reply | 88 to 90 °C

Ask | melting point for CCCS(=O)(=O)Nc1c(C)cc(OC(=O)NC)cc1C ?
Reply | 173 to 176 °C

Ask | Reported melting point, molecule COc1ccc(C(=O)Nc2cc(NC(=O)c3cccc(N(C)C)c3)ccc2Cl)cc1OC : ____
Reply | 98 to 99 °C

Ask | If you can, please state the reported melting point value of CCCNS(=O)(=O)c1c(C)cc(C)cc1C .
Reply | 53 to 54 °C

Ask | Tell me the measured melting point of CC(=O)Nc1ccc(CN(C)C)c(O)c1 , please.
Reply | 133 to 135 °C

Ask | Returns the measured melting point for the input molecule. Input: CC(C)[C@H]1C[C@@H]([C@H](CC2CCCCC2)NC(=O)OCc2ccccc2)OC1=O
Reply | 117 to 118 °C

Ask | Returns the measured melting point for the input molecule. Input: O=C(Nc1nnn[nH]1)c1c(C(F)(F)F)nc2c(C(F)(F)F)cccc2c1O
Reply | > 260 °C

Ask | Returns the measured melting point for the input molecule. Input: CCOC(=O)c1[nH]cnc1Cc1ccccc1
Reply | 149 °C

Ask | Form field: reported melting point of O=C(NCCO)/C(=C/c1ccc(C(F)(F)F)c(F)c1)NC(=O)c1ccc(OCCC(F)(F)F)cc1
Reply | 185 to 186 °C

Ask | Which value of melting point has been reported for Cc1cccc(CCOc2nc(N)c3ncn(C4OC(CO)C(O)C4O)c3n2)c1 (stereo not given) in the records?
Reply | 102 to 108 °C

Ask | Which melting point reading was recorded for the molecule CCOC(=O)c1cccc(Oc2ncccc2OCCCc2ccncc2O)c1 ?
Reply | 76 to 79 °C

Ask | Tell me the measured melting point of O=C(Nc1ccc(-n2nc(C(F)(F)F)cc2C(F)(F)F)nc1)c1ccccc1Cl , please.
Reply | 156 to 159 °C

Ask | Quick one: melting point of Cc1cc(OCCOc2ccc3ccccc3c2)ccc1C(=O)C(=O)O ?
Reply | 129 to 131 °C

Ask | Which melting point is listed for COc1ccc(-c2ccc(C(F)(F)CC(CC(O)CSc3ccccc3)C(=O)O)cc2)cc1 (stereo not given) ?
Reply | 85 to 86 °C

Ask | What melting point value was documented for this molecule, O=CN(O)C(CCCO)CS(=O)(=O)c1ccccc1Oc1ccc(Cl)cc1 (stereo not given) ?
Reply | 127 to 129 °C
